# measurement.notes: Cytotoxicity against human HEK293 cells assessed as inhibition of cell viability by MTT assay
Form field: IC50 (one value per entry).
Kindly answer with a numeric value in µM, unit omitted.

> print(dat)
                                 mol.smiles  measured.value
1  CN(C)c1ccc(/C=N/Nc2nc(Nc3ccccc3)nc(Nc3ccc(S(N)(=O)=O)cc3)n2)cc1            39.8

Prompt: GET /values?readout=IC50&item= NS(=O)(=O)c1ccc(Nc2nc(N/N=C/c3ccccn3)nc(Nc3ccccc3)n2)cc1
Completion: 45.6

* * *

# Tested on: SK-MEL-2
# measurement.notes: Anticancer activity against human SK-MEL-2 cells assessed as cell growth inhibition at 10 uM incubated for 48 hrs by SRB assay relative to control
# Type: functional
# assay.context: read-out: GI
endpoint: inhibition of growth at 10 µM

// known answers, use as guide
> print(dat)
                                 mol.smiles  measured.value
1  NS(=O)(=O)c1ccc(Nc2nc(N/N=C/c3cccs3)nc(Nc3ccccc3)n2)cc1             24%
2  NS(=O)(=O)c1ccc(Nc2nc(N/N=C/C=C/c3ccccc3)nc(Nc3ccccc3)n2)cc1             55%
3  NS(=O)(=O)c1ccc(Nc2nc(N/N=C/c3ccc(C(F)(F)F)cc3)nc(Nc3ccccc3)n2)cc1             71%
4  CCCCc1nc(/C=N/Nc2nc(Nc3ccccc3)nc(Nc3ccc(S(N)(=O)=O)cc3)n2)c(Cl)[nH]1             34%

Prompt: # inhibition of growth at 10 µM lookup, item NS(=O)(=O)c1ccc(Nc2nc(N/N=C/c3ccccc3)nc(Nc3ccccc3)n2)cc1
Completion: 10%

* * *

# Tested on: BT-549
# measurement.notes: Anticancer activity against human BT-549 cells assessed as cell growth inhibition at 10 uM incubated for 48 hrs by SRB assay relative to control
# Assay type: functional
# assay.context: read-out: GI
inhibition of growth at 10 µM by entry:

> print(dat)
                                 mol.smiles  measured.value
1  COc1ccc(/C=N/Nc2nc(Nc3ccccc3)nc(Nc3ccc(S(N)(=O)=O)cc3)n2)cc1             14%
2  CN(C)c1ccc(/C=N/Nc2nc(Nc3ccccc3)nc(Nc3ccc(S(N)(=O)=O)cc3)n2)cc1           < 10%
3  NS(=O)(=O)c1ccc(Nc2nc(N/N=C/c3ccccn3)nc(Nc3ccccc3)n2)cc1            120%
4  Cc1ccc(/C=N/Nc2nc(Nc3ccccc3)nc(Nc3ccc(S(N)(=O)=O)cc3)n2)cc1             23%
5  NS(=O)(=O)c1ccc(Nc2nc(N/N=C/c3cccs3)nc(Nc3ccccc3)n2)cc1             22%
6  NNc1nc(Nc2ccccc2)nc(Nc2ccc(S(N)(=O)=O)cc2)n1           < 10%

Prompt: Return inhibition of growth at 10 µM measured with BT-549 given this molecule: NS(=O)(=O)c1ccc(Nc2nc(N/N=C/c3c[nH]c4ccccc34)nc(Nc3ccccc3)n2)cc1
Completion: 51%

Prompt: Can you handle NS(=O)(=O)c1ccc(Nc2nc(N/N=C/C=C/c3ccccc3)nc(Nc3ccccc3)n2)cc1 next?
Completion: 34%

Prompt: # repeat for Cc1nn(-c2ccccc2)cc1/C=N/Nc1nc(Nc2ccccc2)nc(Nc2ccc(S(N)(=O)=O)cc2)n1
Completion: 78%

Prompt: Next up: NS(=O)(=O)c1ccc(Nc2nc(N/N=C/c3ccc([N+](=O)[O-])cc3)nc(Nc3ccccc3)n2)cc1
Completion: 81%

Prompt: Try this molecule next: NS(=O)(=O)c1ccc(Nc2nc(N/N=C/c3ccc(Cl)cc3)nc(Nc3ccccc3)n2)cc1
Completion: 25%

Prompt: What would you report for NS(=O)(=O)c1ccc(Nc2nc(N/N=C/c3ccc(F)cc3)nc(Nc3ccccc3)n2)cc1 ?
Completion: 32%
